test system: HSkMC (human skeletal muscle cells); assay: cytotoxicity call (relative viability < 0.9); settings: 10 µM
Hit rate of the full screen: of about 39,000 compounds, about 1,500 (3.8%) were called active. The sample as a whole holds a higher share of actives than the screen did.
Please state which outcome applies, choosing from class 1 for active, class 0 for inactive

>>> class_name("COc1ccc([Si](C)(C)[C@@H]2[C@@H](CCn3cc([C@H](O)c4ccccc4)nn3)O[C@]3(C(=O)N(c4ccccc4)c4ccccc43)[C@H]2C)cc1")
"class 0"
>>> class_name("COc1ccc(C#Cc2ccc3c(c2)[C@]2(C(=O)N3)[C@H](c3ccccc3OCCO)N3[C@H](c4ccccc4)[C@H](c4ccccc4)OC(=O)[C@H]3[C@@H]2C(=O)O)cc1")
"class 0"

INPUT: Would you mind telling me which call this test gave COc1ccc([Si](C)(C)[C@@H]2[C@@H](CCn3cc([C@H](O)c4ccccc4)nn3)O[C@]3(C(=O)N(C)c4c(Br)cc(C)cc43)[C@H]2C)cc1 ?
OUTPUT: class 1

INPUT: Would you mind telling me which call this test gave C[C@@H]1CN([C@@H](C)CO)C(=O)c2cccc(NC(=O)c3nc4ccccc4s3)c2O[C@H]1CN(C)C(=O)Nc1ccc(C(F)(F)F)cc1 ?
OUTPUT: class 0
